Test system: HL-60(TB) leukemia
Test: NCI tumour cell line growth inhibition, 48 h
outcome_measure: TGI

Qu. Using known records, supply TGI for COCCCNc1nc(N)c(C#N)c(C#N)c1C#N
Ans. > 10 µM

Qu. Using known records, supply TGI for CCOC(=O)C(=O)Nc1ccccc1CC
Ans. > 100 µM

Qu. Using known records, supply TGI for c1ccc(Sc2ccc(Cc3nc4cc5ccccc5cc4[nH]3)cc2)cc1
Ans. > 100 µM

###

Reported values of TGI for individual entries
Tested on: IGROV1 ovarian
Test: NCI tumour cell line growth inhibition, 48 h

Qu. Using known records, supply TGI for Cc1cc(C(=O)Nc2ccc3cc(CN4CCOCC4)ccc3n2)c(C)n1-c1ccccc1
Ans. 44.8 µM

Qu. Using known records, supply TGI for COCc1nc2c(OC)c(-c3nc4nc(N5CCN(C)CC5)ccc4[nH]3)cc(OC)c2n1C
Ans. > 100 µM

Qu. Using known records, supply TGI for CCc1cc(Cc2cc(CC)c(NC(=O)C(=O)CC(=O)c3sc(-c4cccnc4)nc3C)c(CC)c2)cc(CC)c1NC(=O)C(=O)CC(=O)c1sc(-c2cccnc2)nc1C
Ans. > 100 µM

Qu. Using known records, supply TGI for COc1ccc(-c2nc3ccccn3c2/C=C/C(=O)c2cc(OC)c(OC)c(OC)c2)cc1OC
Ans. 12.1 µM

Qu. Using known records, supply TGI for O=[N+]([O-])c1ccc(S(=O)(=O)n2c3ccc(Br)cc3c3nc4ccccc4nc32)cc1
Ans. > 100 µM

Further cases:
Qu. Using known records, supply TGI for CCCCCCCCCCCC(=O)OCC(C[As](=O)(O)O)OC(=O)CCCCCCCCCCC (centres undefined)
Ans. 3.5 µM

Qu. Using known records, supply TGI for CCCC(CCC)NCC(O)c1cc(-c2ccc(C(F)(F)F)cc2)nc(C(F)(F)F)c1 (centres undefined)
Ans. 4.09 µM

Qu. Using known records, supply TGI for CCOC(=O)c1cc2c3ccn(Cc4ccccc4)c3c3c(C)[nH]oc3c2n1
Ans. > 100 µM

Qu. Using known records, supply TGI for O=C(c1ccco1)N(C(=S)OCCOc1ccccc1)c1ccccc1
Ans. 36.9 µM

Qu. Using known records, supply TGI for O=C(N/N=C\C=C\c1ccc([N+](=O)[O-])o1)C(=O)N/N=C\C=C\c1ccc([N+](=O)[O-])o1
Ans. > 100 µM
